- Test system: TXK
- CONDITIONS USED: concentration: 1 μM, replicates: in singlicate; n = 1;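 note: KINOMEscan kinase panel screen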
Here the recorded %Inh is given for each entry.
QUANTITY NAME: %Inh (%)

structure_smiles_string=COc1ccccc1CNC(=O)c1cc(C(=O)c2ccccc2C)c[nH]1 measurement=27
structure_smiles_string=Cn1cncc1-c1ccc2ncnc(Nc3ccc(OCc4ccccc4)cc3)c2c1 measurement=34
structure_smiles_string=CN1C(=O)C(Nc2ccc(Cl)c(C(=O)O)c2)=C(c2ccc(Cl)cc2)C1=O measurement=0
structure_smiles_string=Cc1cc(N2Cc3ccccc3C2)nc(Nc2ccc(S(=O)(=O)N3CCOCC3)cc2)n1.Cl measurement=0
structure_smiles_string=CCn1c(-c2ccccn2)nc2cnccc21 measurement=10
structure_smiles_string=CC(C)(C)c1ccc(C(=O)Nc2cn3cc(-c4cccnc4)ccc3n2)cc1 measurement=18
structure_smiles_string=COc1ccc(Nc2nccc(-c3cccc(NC(=O)c4cc5cc(F)ccc5[nH]4)c3)n2)cc1 measurement=17
structure_smiles_string=COc1ccc2nc(-c3cccc(C)n3)nc(Nc3ccncc3)c2c1 measurement=9
structure_smiles_string=O=C(O)COc1ncnc2cc(-c3ccc4[nH]ncc4c3)sc12 measurement=14
structure_smiles_string=Fc1cc(Cl)ccc1Nc1ccnc2cc(I)ccc12 measurement=28

----------
- System: TSSK3
- CONDITIONS USED: concentration: 1 μM, replicates: in singlicate; n = 1
Entries are sorted into classes by %Inh as follows: Low (below 1%), Medium (1% to below 20%), High (20% or more)

compound="Cn1cncc1-c1ccc2ncnc(Nc3ccc(OCc4ccccc4)cc3)c2c1 [GW320571]" study_target=TSSK3 qualitative_label=Medium
compound="Nc1nc(-c2nccs2)c(-c2ccnc3ccccc23)s1 [GW693542]" study_target=TSSK3 qualitative_label=High
compound="COc1ccc(Nc2nccc(NCCNC(=O)Nc3ccccc3F)n2)cc1 [GSK1379901]" study_target=TSSK3 qualitative_label=Medium
compound="Cl.O=C(Nc1cccc(-c2nn3ncccc3c2-c2ccnc(Nc3cccnc3)n2)c1)c1c(F)cccc1F [GSK312879]" study_target=TSSK3 qualitative_label=Medium
compound="Cc1cc(-c2ccc3c(c2)CC[C@@H](N[C@@H](C)c2ccccc2)C3)cnc1N.Cl [GW412617]" study_target=TSSK3 qualitative_label=Medium
compound="Cc1cccc(-c2nc(Nc3cccc(C(N)=O)c3)c3ccccc3n2)n1 [GW876019]" study_target=TSSK3 qualitative_label=Low
compound="Cc1cccc(-c2nc(Nc3ccc4[nH]ncc4c3)c3ccccc3n2)n1 [GW857175]" study_target=TSSK3 qualitative_label=High
compound="COc1cc2nccc(Nc3ccc(NC(=O)c4ccc(C)cc4)c(O)c3)c2cc1OC.Cl [GW440132]" study_target=TSSK3 qualitative_label=Medium
compound="O=C(Nc1n[nH]c2nc(-c3nccs3)c(Br)cc12)C1CC1 [SB-742251]" study_target=TSSK3 qualitative_label=Medium
compound="C[C@@H]1CCCCN1c1cc(-c2ccc3c(N)n[nH]c3c2)nc(N)n1 [GSK2258759]" study_target=TSSK3 qualitative_label=Medium
compound="Nc1ncnc2[nH]c(-c3ccccc3)nc12 [AH5015]" study_target=TSSK3 qualitative_label=Medium
compound=CC(=O)Nc1nc2cnc(Nc3cc(NC(=O)c4cccc(CCC#N)c4)ccc3C)nc2s1 study_target=TSSK3 qualitative_label=Low
compound="O=C(Nc1n[nH]c2nc(-c3nccs3)c(Br)cc12)C1CCCC1 [SB-742609]" study_target=TSSK3 qualitative_label=Low
compound="COc1ccc(C2=C(Nc3cccc(C(=O)O)c3)C(=O)NC2=O)cc1 [SB-390765]" study_target=TSSK3 qualitative_label=Low
compound="Cc1cccc(-c2nc(Nc3ccncc3)c3ccccc3n2)n1 [GW855857]" study_target=TSSK3 qualitative_label=Low
compound="COc1cc(Nc2nccc(N3CCC(NC(=O)Nc4cc(C)ccc4C)C3)n2)cc(OC)c1OC (stereo not drawn) [GSK1379762]" study_target=TSSK3 qualitative_label=High
compound="Cc1cc(NCC(c2ccccc2)c2ccccc2)nc(NCc2ccc(C(F)(F)F)cc2)n1 [GW497681]" study_target=TSSK3 qualitative_label=Medium
compound=O=C(Nc1ccccc1)Nc1cccc(Oc2ccc3nccn3n2)c1 study_target=TSSK3 qualitative_label=Low
compound="Cc1ccccc1-n1cnc2c(N)ncnc21 [SKF-97510]" study_target=TSSK3 qualitative_label=Low
compound="CN(C)CCN(C)C(=O)c1cc(-c2ccncc2)c(-c2ccc(Cl)c(O)c2)o1.Cl.Cl [SB-710397]" study_target=TSSK3 qualitative_label=High
compound="CCn1c(-c2ccccn2)nc2cnccc21 [SB-736398]" study_target=TSSK3 qualitative_label=Medium
compound="COc1cc2ncnc(Nc3ccc4nc(-c5ccccc5)[nH]c4c3)c2cc1OC.Cl [GW282450]" study_target=TSSK3 qualitative_label=High
compound="Cl.c1ccc(-c2n[nH]cc2-c2ccnc(-c3ccc(CN4CCOCC4)cc3)c2)nc1 [GW776245]" study_target=TSSK3 qualitative_label=Low
compound="Cc1nnc(-c2ccc3occ(-c4ccc(S(C)=O)cc4)c3c2)[nH]1 (stereo not drawn)" study_target=TSSK3 qualitative_label=Medium
compound="Cc1cc(N2Cc3ccccc3C2)nc(Nc2ccc(S(=O)(=O)N3CCOCC3)cc2)n1.Cl [GSK1669917]" study_target=TSSK3 qualitative_label=Medium
compound="Cc1csc(-c2nc(Nc3ccncc3)c3ccccc3n2)n1 [GW869640]" study_target=TSSK3 qualitative_label=High
compound="CN1C(=O)C(Nc2ccc(Cl)c(C(=O)O)c2)=C(c2ccc(Cl)cc2)C1=O [SB-404290]" study_target=TSSK3 qualitative_label=Low
compound="COc1cccc(-c2cc(-c3c[nH]nc3-c3ccccn3)ccn2)c1 [GW680338]" study_target=TSSK3 qualitative_label=Medium
compound="CCCc1ccc(S(=O)(=O)NC2CCN(c3ccnc(Nc4ccc(F)cc4)n3)C2)cc1 (stereo not drawn) [GSK1379715]" study_target=TSSK3 qualitative_label=Medium
compound="COc1ccc(CNC(=O)NC2CCN(c3ccnc(Nc4cc(OC)c(OC)c(OC)c4)n3)C2)cc1 (stereo not drawn) [GSK1379748]" study_target=TSSK3 qualitative_label=Medium
compound="Cc1ccc(-c2cc(-c3c[nH]nc3-c3ccccn3)ccn2)cc1 [GW684088]" study_target=TSSK3 qualitative_label=Medium
compound="COc1ccccc1CNC(=O)c1cc(C(=O)c2ccccc2C)c[nH]1 [GSK364507]" study_target=TSSK3 qualitative_label=Medium
compound=Cn1ccc2ncnc(Oc3ccc(NC(=O)Nc4ccccc4)cc3)c21 study_target=TSSK3 qualitative_label=Low
compound="COc1ccccc1-c1ccc2c(NC(=O)C3CC3)n[nH]c2n1 [SB-711239]" study_target=TSSK3 qualitative_label=High
compound=Cn1ccc2ncnc(Oc3ccc(Nc4nc5ccccc5[nH]4)cc3)c21 study_target=TSSK3 qualitative_label=Low

Reference source for all entries: paper PMC5540273
